Recorded koff, one value per entry.
# measurement_target: T1, cynomolgus monkey BCMA (cynomolgus monkey, UniProt A0A2K5UD97 1-53)
# T1 construct: Soluble analyte in SPR; construct not described; also called cyBCMA; Cyno BCMA
# T1 sequence (A0A2K5UD97 entry or part of it): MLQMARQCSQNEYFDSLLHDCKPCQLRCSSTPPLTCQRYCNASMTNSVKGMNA
# experimental_details: SPR, IgG on chip, cyBCMA analyte
The answer is to be given in s⁻¹; state only the numeric part.

binder	koff / s⁻¹
A02_Rd4_6nM_C10 (antibody, V domains shown, IgG) VH: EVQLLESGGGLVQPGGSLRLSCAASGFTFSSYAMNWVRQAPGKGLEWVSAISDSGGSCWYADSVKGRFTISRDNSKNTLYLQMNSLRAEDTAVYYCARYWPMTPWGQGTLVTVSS VL: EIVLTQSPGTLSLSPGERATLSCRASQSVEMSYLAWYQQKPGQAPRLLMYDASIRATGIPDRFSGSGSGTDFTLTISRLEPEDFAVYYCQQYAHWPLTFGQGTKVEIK	0.000898

Now look at this entry.
Query (binder): P5C1_VHVL (antibody, V domains shown, IgG; also called PC1) VH: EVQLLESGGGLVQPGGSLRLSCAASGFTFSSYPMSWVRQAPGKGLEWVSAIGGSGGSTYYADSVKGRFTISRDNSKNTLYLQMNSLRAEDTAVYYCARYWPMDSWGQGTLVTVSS VL: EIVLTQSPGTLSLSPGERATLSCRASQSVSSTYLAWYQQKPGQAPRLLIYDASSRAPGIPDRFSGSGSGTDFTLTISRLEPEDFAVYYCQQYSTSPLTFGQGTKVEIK ; field requested: koff
0.0538
